Target: FASN-TE; rTE (recombinant TE domain of human FASN) (Homo sapiens)
Experiment: fluorogenic thioesterase assay
Format: biochemical
Readout Name: IC50 (µM)
Please state the figure in µM; there is no need to write the unit.

Req: # IC50 lookup, item O=C1C=C(N2CCOCC2)C(=O)c2c(O)cccc21
Resp: 26.4

Req: Follow-up entry: CC1=CC(=O)c2ccccc2C1=O
Resp: 21.9

* * *

Molecular target: FASN-TE; rTE (recombinant TE domain of human FASN) (Homo sapiens)
Test: fluorogenic thioesterase assay
Format: biochemical
Readout Name: IC50 (µM)
Reply numerically in µM, unit not repeated.

Req: I'm curious: which IC50 was measured for O=C1C=CC(=O)c2c(O)ccc(O)c21 tested on FASN-TE; rTE (recombinant TE domain of human FASN) (Homo sapiens)?
Resp: 3.5

* * *

Molecular target: FASN-TE; rTE (recombinant TE domain of human FASN) (Homo sapiens)
Experiment: fluorogenic thioesterase assay
Assay type: biochemical
Readout Name: pIC50
Field pIC50 (float): negative decimal logarithm of the concentration in molar.

Req: For CC1=CC(=O)c2c(O)cccc2C1=O , what is its reported pIC50?
Resp: 4.96

* * *

Catalogue of compounds with associated pIC50
Molecular target: FASN-TE; rTE (recombinant TE domain of human FASN) (Homo sapiens, UniProt P49327)
Sequence (P49327 2218-2511 limits assumed): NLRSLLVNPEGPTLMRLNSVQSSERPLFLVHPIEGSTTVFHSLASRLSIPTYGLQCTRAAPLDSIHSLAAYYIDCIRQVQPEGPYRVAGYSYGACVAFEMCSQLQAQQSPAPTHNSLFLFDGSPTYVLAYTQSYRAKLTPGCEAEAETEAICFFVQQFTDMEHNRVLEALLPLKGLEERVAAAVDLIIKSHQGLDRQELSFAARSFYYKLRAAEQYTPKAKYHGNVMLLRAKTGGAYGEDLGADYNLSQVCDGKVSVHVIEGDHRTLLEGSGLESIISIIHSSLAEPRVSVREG
Test: fluorogenic thioesterase assay
Type: biochemical
The value called pIC50 is obtained by taking minus log10 of the concentration in mol/L.

> print(dat)
             smiles.structure                           subject.of.test  assay.result
1    CCCCCCCSC1=CC(=O)C=CC1=O  FASN-TE; rTE (recombinant TE domain of human FASN) (Homo sapiens, UniProt P49327)          5.21
2  O=C1C=CC(=O)C(SC2CCCC2)=C1  FASN-TE; rTE (recombinant TE domain of human FASN) (Homo sapiens, UniProt P49327)          5.19

Req: # input compound: O=C1C=CC(=O)C(Sc2ccccc2)=C1 ; wanted: its pIC50
Resp: 6.70

Req: Now give it for O=C1C=CC(=O)c2c(O)cccc21 too.
Resp: 7.00
